Test: Colistin concentration in luminal intestinal (jejunum and ileum) content, UHPLC-MS/MS
Assay type: in vivo, Ross 308 broiler chickens
Conditions: Ross 308 broiler, 150000 IU/kg, oral gavage 150,000 IU/kg, after 3 h, 2 birds per timepoint
Procedure: Pharmacokinetic data from in vivo clinical and supra-clinical doses via drinking water and oral gavage were collected as follows. Birds were provided a 14-h photoperiod aligned with onset of dosing (0 h) at 07:00. […] Colistin was administered as a single oral gavage via manual syringe directly into the crop, with the volume calculated based on bird weight immediately prior to dosing. […] The “real” dose received every 24 h was back calculated based on measured water consumption for each dosing period. […]
Where a SMILES comes first, the peptide text is derived from it. Bridges are numbered along the chain shown (N, C = ends). [ ]: non-standard residue; d: D form. The star is where a group is joined. X1 = CC[C@H](C)CCCCC(=O)*; Dab = NCC[C@H](N)C(=O)O
Attribute Measured: tissue level at time at 3 h (ng/g)
The answer is to be given in ng/g; state only the numeric part.

Find the recorded tissue level at time at 3 h belonging to CC[C@H](C)CCCCC(=O)N[C@@H](CCN)C(=O)N[C@H](C(=O)N[C@@H](CCN)C(=O)N[C@H]1CCNC(=O)[C@H]([C@@H](C)O)NC(=O)[C@H](CCN)NC(=O)[C@H](CCN)NC(=O)[C@H](CC(C)C)NC(=O)[C@@H](CC(C)C)NC(=O)[C@H](CCN)NC1=O)[C@@H](C)O [colistin, colistin sulphate] (X1-[Dab]T[Dab][Dab][Dab][dL]L[Dab][Dab]T; lactam 4-C) and report it. 45600

====

experiment: Colistin concentration in luminal intestinal (jejunum and ileum) content, UHPLC-MS/MS; format: in vivo, Ross 308 broiler chickens; details: Ross 308 broiler, po, 100000 IU/kg/day, 100,000 IU/kg via drinking water, at 54 h, jejunum and ileum content, 4 birds per timepoint, read-out: Geometric mean colistin concentration in luminal intestinal content
Where a SMILES comes first, the peptide text is derived from it. Bridges are numbered along the chain shown (N, C = ends). [ ]: non-standard residue; d: D form. The star is where a group is joined. X1 = CC[C@H](C)CCCCC(=O)*; Dab = NCC[C@H](N)C(=O)O
Attribute Measured: tissue level at time at 54 h (ng/g)
The answer is to be given in ng/g; state only the numeric part.

Find the recorded tissue level at time at 54 h belonging to CC[C@H](C)CCCCC(=O)N[C@@H](CCN)C(=O)N[C@H](C(=O)N[C@@H](CCN)C(=O)N[C@H]1CCNC(=O)[C@H]([C@@H](C)O)NC(=O)[C@H](CCN)NC(=O)[C@H](CCN)NC(=O)[C@H](CC(C)C)NC(=O)[C@@H](CC(C)C)NC(=O)[C@H](CCN)NC1=O)[C@@H](C)O [colistin, colistin sulphate] (X1-[Dab]T[Dab][Dab][Dab][dL]L[Dab][Dab]T; lactam 4-C) and report it. 6660

====

test: Colistin concentration in luminal intestinal (jejunum and ileum) content, UHPLC-MS/MS; assay type: in vivo, Ross 308 broiler chickens; details: Ross 308 broiler, po, 150000 IU/kg/day, 150,000 IU/kg via drinking water, at 54 h, jejunum and ileum content, 4 birds per timepoint, read-out: Geometric mean colistin concentration in luminal intestinal content
Where a SMILES comes first, the peptide text is derived from it. Bridges are numbered along the chain shown (N, C = ends). [ ]: non-standard residue; d: D form. The star is where a group is joined. X1 = CC[C@H](C)CCCCC(=O)*; Dab = NCC[C@H](N)C(=O)O
Attribute Measured: tissue level at time at 54 h (ng/g)
The answer is to be given in ng/g; state only the numeric part.

Find the recorded tissue level at time at 54 h belonging to CC[C@H](C)CCCCC(=O)N[C@@H](CCN)C(=O)N[C@H](C(=O)N[C@@H](CCN)C(=O)N[C@H]1CCNC(=O)[C@H]([C@@H](C)O)NC(=O)[C@H](CCN)NC(=O)[C@H](CCN)NC(=O)[C@H](CC(C)C)NC(=O)[C@@H](CC(C)C)NC(=O)[C@H](CCN)NC1=O)[C@@H](C)O [colistin, colistin sulphate] (X1-[Dab]T[Dab][Dab][Dab][dL]L[Dab][Dab]T; lactam 4-C) and report it. 8600
